- Test system: Escherichia coli TOP10
- assay_protocol: shrunken log2 fold change of peptide-encoding DNA abundance (4.5 h post-induction vs induction); higher = less antimicrobial activity (less host growth inhibition)
- experimental_parameters: time post-induction: 4.5 h; library: site-saturation at positions 5, 18, 19, 20
Could you label it y if measured shrunken log2 fold change is 0.06 or higher, and n otherwise?

Decide: is the reported value of shrunken log2 fold change for "RRIRYRPPRLPRPRPRPSSEPRP" equal to or greater than 0.06? n

Decide: is the reported value of shrunken log2 fold change for "RRIRYRPPRLPRPRPRPETRPRP" equal to or greater than 0.06? n

Decide: is the reported value of shrunken log2 fold change for "RRIRKRPPRLPRPRPRPWWDPRP" equal to or greater than 0.06? n

Decide: is the reported value of shrunken log2 fold change for "RRIRARPPRLPRPRPRPDDSPRP" equal to or greater than 0.06? y

Decide: is the reported value of shrunken log2 fold change for "RRIRLRPPRLPRPRPRPPLRPRP" equal to or greater than 0.06? y

Decide: is the reported value of shrunken log2 fold change for "RRIRMRPPRLPRPRPRPYTNPRP" equal to or greater than 0.06? n

Decide: is the reported value of shrunken log2 fold change for "RRIRSRPPRLPRPRPRPAAGPRP" equal to or greater than 0.06? y

Decide: is the reported value of shrunken log2 fold change for "RRIRRRPPRLPRPRPRPFQSPRP" equal to or greater than 0.06? y

Decide: is the reported value of shrunken log2 fold change for "RRIRERPPRLPRPRPRPNVMPRP" equal to or greater than 0.06? n

Decide: is the reported value of shrunken log2 fold change for "RRIRLRPPRLPRPRPRPWYTPRP" equal to or greater than 0.06? n

Decide: is the reported value of shrunken log2 fold change for "RRIRNRPPRLPRPRPRPGHIPRP" equal to or greater than 0.06? n

Decide: is the reported value of shrunken log2 fold change for "RRIRCRPPRLPRPRPRPTKSPRP" equal to or greater than 0.06? n

Decide: is the reported value of shrunken log2 fold change for "RRIRKRPPRLPRPRPRPMHFPRP" equal to or greater than 0.06? n

###

Please go through the items and note down their shrunken log2 fold change.
- Test system: Escherichia coli TOP10
- assay_protocol: shrunken log2 fold change of peptide-encoding DNA abundance (4.5 h post-induction vs induction); higher = less antimicrobial activity (less host growth inhibition)
- experimental_parameters: time post-induction: 4.5 h; library: site-saturation at positions 5, 18, 19, 20
Lab note: jot down the number only; don't add units.

Record request: shrunken log2 fold change value, item "RRIRRRPPRLPRPRPRPRVTPRP" 0.766

Record request: shrunken log2 fold change value, item "RRIRHRPPRLPRPRPRPRHQPRP" 0.0252

Record request: shrunken log2 fold change value, item "RRIRYRPPRLPRPRPRPPRTPRP" -0.0112

Record request: shrunken log2 fold change value, item "RRIRMRPPRLPRPRPRPKGAPRP" 1.76

Record request: shrunken log2 fold change value, item "RRIRARPPRLPRPRPRPDIMPRP" 0.0619

Record request: shrunken log2 fold change value, item "RRIRIRPPRLPRPRPRPSCQPRP" -0.0446

Record request: shrunken log2 fold change value, item "RRIRLRPPRLPRPRPRPMHRPRP" -0.274

Record request: shrunken log2 fold change value, item "RRIRVRPPRLPRPRPRPKRCPRP" -0.0118

Record request: shrunken log2 fold change value, item "RRIRLRPPRLPRPRPRPFNYPRP" -0.817

Record request: shrunken log2 fold change value, item "RRIRDRPPRLPRPRPRPYYYPRP" -1.11

Record request: shrunken log2 fold change value, item "RRIRGRPPRLPRPRPRPSVEPRP" 0.651

Record request: shrunken log2 fold change value, item "RRIRNRPPRLPRPRPRPKMFPRP" -0.00426

Record request: shrunken log2 fold change value, item "RRIRIRPPRLPRPRPRPEKWPRP" -0.0117

Record request: shrunken log2 fold change value, item "RRIRVRPPRLPRPRPRPPGMPRP" 0.172

Record request: shrunken log2 fold change value, item "RRIRIRPPRLPRPRPRPANIPRP" -0.383

Record request: shrunken log2 fold change value, item "RRIRHRPPRLPRPRPRPRGHPRP" -0.103

Record request: shrunken log2 fold change value, item "RRIRCRPPRLPRPRPRPIKQPRP" -0.062

Record request: shrunken log2 fold change value, item "RRIRMRPPRLPRPRPRPYNIPRP" -0.358

Record request: shrunken log2 fold change value, item "RRIRPRPPRLPRPRPRPNANPRP" 0.0132

Record request: shrunken log2 fold change value, item "RRIRARPPRLPRPRPRPGIGPRP" 0.524

Record request: shrunken log2 fold change value, item "RRIRTRPPRLPRPRPRPYSYPRP" -0.692

Record request: shrunken log2 fold change value, item "RRIRSRPPRLPRPRPRPVMTPRP" -0.0963

Record request: shrunken log2 fold change value, item "RRIRDRPPRLPRPRPRPKEPPRP" 0.00859

Record request: shrunken log2 fold change value, item "RRIRFRPPRLPRPRPRPFKLPRP" -0.0106

Record request: shrunken log2 fold change value, item "RRIRHRPPRLPRPRPRPFKWPRP" -0.0376

Record request: shrunken log2 fold change value, item "RRIRDRPPRLPRPRPRPEAYPRP" -0.0102

Record request: shrunken log2 fold change value, item "RRIRVRPPRLPRPRPRPQHEPRP" -0.245

Record request: shrunken log2 fold change value, item "RRIRSRPPRLPRPRPRPCIYPRP" -0.847

Record request: shrunken log2 fold change value, item "RRIRSRPPRLPRPRPRPYDHPRP" -0.795

Record request: shrunken log2 fold change value, item "RRIRERPPRLPRPRPRPLEIPRP" 0.0282

Record request: shrunken log2 fold change value, item "RRIRQRPPRLPRPRPRPVIEPRP" 0.162

Record request: shrunken log2 fold change value, item "RRIRVRPPRLPRPRPRPIVPPRP" -0.349

Record request: shrunken log2 fold change value, item "RRIRNRPPRLPRPRPRPIARPRP" -0.0163

Record request: shrunken log2 fold change value, item "RRIRFRPPRLPRPRPRPARDPRP" 0.732

Record request: shrunken log2 fold change value, item "RRIRLRPPRLPRPRPRPRHRPRP" -0.0544

Record request: shrunken log2 fold change value, item "RRIRFRPPRLPRPRPRPRNKPRP" -0.174

Record request: shrunken log2 fold change value, item "RRIRVRPPRLPRPRPRPTSTPRP" -0.103

Record request: shrunken log2 fold change value, item "RRIRWRPPRLPRPRPRPDDPPRP" -0.0101

Record request: shrunken log2 fold change value, item "RRIRTRPPRLPRPRPRPKAQPRP" -0.0875

Record request: shrunken log2 fold change value, item "RRIRRRPPRLPRPRPRPVWWPRP" 0.703

Record request: shrunken log2 fold change value, item "RRIRQRPPRLPRPRPRPRMSPRP" 0.208

Record request: shrunken log2 fold change value, item "RRIRERPPRLPRPRPRPEAHPRP" 0.201

Record request: shrunken log2 fold change value, item "RRIRERPPRLPRPRPRPDGGPRP" 0.0135

Record request: shrunken log2 fold change value, item "RRIRLRPPRLPRPRPRPMLRPRP" 0.0543

Record request: shrunken log2 fold change value, item "RRIRRRPPRLPRPRPRPKWRPRP" 0.587

Record request: shrunken log2 fold change value, item "RRIRPRPPRLPRPRPRPIPDPRP" 0.0469

Record request: shrunken log2 fold change value, item "RRIRTRPPRLPRPRPRPLESPRP" -0.0663

Record request: shrunken log2 fold change value, item "RRIRQRPPRLPRPRPRPSKLPRP" -0.401

Record request: shrunken log2 fold change value, item "RRIRNRPPRLPRPRPRPFLYPRP" -0.468

###

- Test system: Escherichia coli TOP10;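 note: peptides expressed intracellularly from a pBAD plasmid library in pooled LB shake-flask culture, induced with 0.3% L-arabinose, DNA abundance read by NGS, three biological replicates, DESeq2 with apeglm shrinkage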
- assay_protocol: shrunken log2 fold change of peptide-encoding DNA abundance (4.5 h post-induction vs induction); higher = less antimicrobial activity (less host growth inhibition)
- experimental_parameters: time post-induction: 4.5 h; library: site-saturation at positions 5, 18, 19, 20
Please go through the items and note down their shrunken log2 fold change.
Lab note: jot down the number only; don't add units.

Record request: shrunken log2 fold change value, item "RRIRKRPPRLPRPRPRPKMTPRP" 0.187

Record request: shrunken log2 fold change value, item "RRIRERPPRLPRPRPRPLSLPRP" -0.371

Record request: shrunken log2 fold change value, item "RRIRNRPPRLPRPRPRPPTFPRP" 0.145

Record request: shrunken log2 fold change value, item "RRIRPRPPRLPRPRPRPTFTPRP" 0.101

Record request: shrunken log2 fold change value, item "RRIRWRPPRLPRPRPRPKNSPRP" 0.318

Record request: shrunken log2 fold change value, item "RRIRSRPPRLPRPRPRPPIYPRP" -0.0803

Record request: shrunken log2 fold change value, item "RRIRVRPPRLPRPRPRPVSKPRP" -0.249

Record request: shrunken log2 fold change value, item "RRIRNRPPRLPRPRPRPVRNPRP" 0.178

Record request: shrunken log2 fold change value, item "RRIRMRPPRLPRPRPRPLAAPRP" 2.64

Record request: shrunken log2 fold change value, item "RRIRGRPPRLPRPRPRPYDIPRP" -0.068

Record request: shrunken log2 fold change value, item "RRIRQRPPRLPRPRPRPMCIPRP" 0.0119

Record request: shrunken log2 fold change value, item "RRIRARPPRLPRPRPRPIWVPRP" 0.226

Record request: shrunken log2 fold change value, item "RRIRARPPRLPRPRPRPLTRPRP" 0.284
